# ASSAY_OVERVIEW: AUC in CD1 mouse at 30 mg/kg, po
# Format: ADME, organism-based
# Parameters: dose 30 mg/kg, route oral
# CONDITION_PARAMETERS: plasma
READOUT_NAME: AUC

## Input What value of AUC has been recorded for this entry: CC(C)(C)c1cnc(CSc2cnc(N[C@H]3CC[C@H](N)CC3)s2)o1
## Output 6390 ng·h/mL

###

# TARGET_ENTITY: CDK9/cyclin T1 (Homo sapiens)
# Sequence (O60563 whole entry): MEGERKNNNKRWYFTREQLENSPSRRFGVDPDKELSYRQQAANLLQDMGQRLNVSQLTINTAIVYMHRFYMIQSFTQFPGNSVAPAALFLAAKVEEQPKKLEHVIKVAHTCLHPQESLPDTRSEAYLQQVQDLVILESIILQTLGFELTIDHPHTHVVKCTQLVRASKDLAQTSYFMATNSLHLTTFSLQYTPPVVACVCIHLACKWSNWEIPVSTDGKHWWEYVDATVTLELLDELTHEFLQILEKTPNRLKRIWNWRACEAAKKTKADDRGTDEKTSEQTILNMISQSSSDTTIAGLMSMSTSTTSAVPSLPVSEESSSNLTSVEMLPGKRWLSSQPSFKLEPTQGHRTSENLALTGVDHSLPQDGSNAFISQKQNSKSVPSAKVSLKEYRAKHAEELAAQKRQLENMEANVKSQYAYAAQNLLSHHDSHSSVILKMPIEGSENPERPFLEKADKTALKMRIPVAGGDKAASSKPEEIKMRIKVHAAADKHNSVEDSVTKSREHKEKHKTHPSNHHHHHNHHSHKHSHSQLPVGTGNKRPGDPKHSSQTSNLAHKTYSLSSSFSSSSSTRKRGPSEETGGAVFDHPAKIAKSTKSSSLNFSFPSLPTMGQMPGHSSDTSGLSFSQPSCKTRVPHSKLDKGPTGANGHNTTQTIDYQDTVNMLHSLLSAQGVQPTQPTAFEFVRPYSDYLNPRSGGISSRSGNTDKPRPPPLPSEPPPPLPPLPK
# Sequence (P50750 whole entry): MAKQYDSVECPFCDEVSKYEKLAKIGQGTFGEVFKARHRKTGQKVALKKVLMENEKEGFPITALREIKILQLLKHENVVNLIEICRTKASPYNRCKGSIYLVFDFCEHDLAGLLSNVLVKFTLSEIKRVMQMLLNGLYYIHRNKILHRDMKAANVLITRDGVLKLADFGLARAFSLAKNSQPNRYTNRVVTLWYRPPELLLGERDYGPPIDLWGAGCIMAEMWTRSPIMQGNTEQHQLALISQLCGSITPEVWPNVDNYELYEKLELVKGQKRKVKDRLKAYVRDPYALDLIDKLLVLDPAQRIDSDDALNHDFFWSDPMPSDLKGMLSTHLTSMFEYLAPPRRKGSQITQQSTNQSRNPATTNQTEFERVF
# ASSAY_OVERVIEW: Inhibition of CDK9/cyclinT by IMAP florescence polarization assay
READOUT_NAME: pIC50
In textbook form, pIC50 equals minus log to base ten of the concentration in mol/L.

## Input Please look up its pIC50: CC(C)(C)c1cnc(CSc2cnc(N[C@H]3CC[C@H](N)CC3)s2)o1
## Output 7.01

###

Each item that follows carries a reported Vd.
# ASSAY_OVERVIEW: Volume of distribution at steady state in CD1 mouse at 5 mg/kg, iv
# Assay type: ADME, organism-based
# Set-up: dose 5 mg/kg, route intravenous
# CONDITION_PARAMETERS: in vivo, read-out: Vdss
State the answer as a number, implicitly in L/kg.

CC(C)(C)c1cnc(CSc2cnc(N[C@H]3CC[C@H](N)CC3)s2)o1 ... 6

## Input I have this molecule here, CC(C)(C)c1cnc(CSc2cnc(NC(=O)C3CCNCC3)s2)o1 [BMS-387032] , and I need its recorded Vd.
## Output 3

###

# ASSAY_OVERVIEW: Half life in CD1 mouse at 10 mg/kg, po
# Assay type: ADME, organism-based
# Set-up: dose 10 mg/kg, route oral
# CONDITION_PARAMETERS: in vivo
READOUT_NAME: half-life
Report as: number unit

CC(C)(C)c1cnc(CSc2cnc(N[C@H]3CC[C@H](N)CC3)s2)o1 ... 1.5 h

Okay, next one:
## Input Consider the molecule CC(C)(C)c1cnc(CSc2cnc(NC(=O)C3CCNCC3)s2)o1 and give its measured half-life.
## Output 0.5 h

###

# ASSAY_OVERVIEW: Metabolic stability in mouse liver microsomes at 1 uM after 60 mins
# Format: ADME, Microsome
# CONDITION_PARAMETERS: read-out: Stability
READOUT_NAME: remaining at 1 h, 1 µM (%)
Expressed in %, but write only the number.

## Input Name the recorded remaining at 1 h, 1 µM for CC(C)(C)c1cnc(CSc2cnc(N[C@H]3CC[C@H](N)CC3)s2)o1 .
## Output 77

###

# ASSAY_OVERVIEW: Cmax in CD1 mouse at 45 mg/kg, po
# Format: ADME, organism-based
# Design: dose 45 mg/kg, route oral
# CONDITION_PARAMETERS: in vivo
READOUT_NAME: Cmax (ng/mL)
Return type: number; implicit unit ng/mL.

## Input Find the recorded Cmax belonging to CC(C)(C)c1cnc(CSc2cnc(N[C@H]3CC[C@H](N)CC3)s2)o1 and report it.
## Output 4600

###

# ASSAY_OVERVIEW: Cmax in CD1 mouse at 5 mg/kg, iv
# Assay type: ADME, organism-based
# Design: dose 5 mg/kg, route intravenous
# CONDITION_PARAMETERS: in vivo
Cmax reference
Note: state the figure and append the unit.

CC(C)(C)c1cnc(CSc2cnc(N[C@H]3CC[C@H](N)CC3)s2)o1 ... 1660 ng/mL

Next, consider the following compound.
## Input Query (compound): CC(C)(C)c1cnc(CSc2cnc(NC(=O)C3CCNCC3)s2)o1 ; field requested: Cmax
## Output 2230 ng/mL

Values were extracted from ChEMBL document CHEMBL1143434.
